# pIC50 listing for each entry below
- ASSAY_SYSTEM: human Edg-1 (S1P1) (Homo sapiens, UniProt P21453)
- Sequence (P21453 whole entry): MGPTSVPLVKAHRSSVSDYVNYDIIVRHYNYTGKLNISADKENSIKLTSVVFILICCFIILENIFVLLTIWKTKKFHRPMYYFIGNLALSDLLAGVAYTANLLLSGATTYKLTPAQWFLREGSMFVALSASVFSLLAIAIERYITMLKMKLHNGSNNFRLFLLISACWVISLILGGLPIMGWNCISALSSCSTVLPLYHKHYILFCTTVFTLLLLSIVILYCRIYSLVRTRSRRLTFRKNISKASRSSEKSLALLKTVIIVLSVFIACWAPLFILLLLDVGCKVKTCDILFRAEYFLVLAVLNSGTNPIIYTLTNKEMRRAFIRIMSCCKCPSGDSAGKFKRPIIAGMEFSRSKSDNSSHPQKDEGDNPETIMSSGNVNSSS
- EXPERIMENT_SUMMARY: S1P1 binding assay: inhibition of [33P]-S1P binding to membrane fraction of HEK-293 cells transferred with the human Edg-1 (S1P1) gene
- MEASUREMENT_PARAMETERS: [33P]-S1P 0.1 nM, human Edg-1 (S1P1) HEK-293 membrane fraction, 1 h at 30° C.; read-out: IC50 (concentration at which binding in the absence of the test compound was inhibited by 50%)
pIC50: −log10 of the molar value.

{"columns": ["SMILES_INPUT", "SIGN", "pIC50"],
 "data": [
  ["CCc1ccc(Oc2nnc([C@@H](C)NS(=O)(=O)c3ccc(Cl)c(Cl)c3)n2CC)cc1", "≥", 8.00],
  ["CCn1c(Oc2cccc(N3CCN(C)CC3)c2)nnc1[C@@H](C)NS(=O)(=O)c1ccc2c(Cl)cccc2c1", "=", 8.77],
  ["CCn1c(Oc2ccc(OCCN(C)C)cc2)nnc1[C@@H](C)NS(=O)(=O)c1ccc(Cl)c(Cl)c1", "≥", 7.46],
  ["CCn1c(Oc2cccc(N3CCN(C)CC3)c2)nnc1[C@@H](C)NS(=O)(=O)c1ccc(C)c(Cl)c1", "≥", 8.00],
  ["CCn1c(Oc2ccc(F)c(N3CCN(C)CC3)c2)nnc1[C@@H](C)NS(=O)(=O)c1ccc2c(Cl)cccc2c1", "=", 8.85],
  ["CCn1c(Oc2ccc3cc[nH]c3c2)nnc1[C@@H](C)NS(=O)(=O)c1ccc(C)c(Cl)c1", "≥", 8.00],
  ["CCn1c(Oc2ccc(Cl)cc2)nnc1[C@@H](C)NS(=O)(=O)c1ccc(Cl)c(Cl)c1", "=", 7.73]
]}

====

- ASSAY_SYSTEM: human Edg-1 (S1P1) (Homo sapiens, UniProt P21453)
- Construct: expressed in transfected cells; host or cells: HEK-293
- EXPERIMENT_SUMMARY: S1P1 binding assay: inhibition of [33P]-S1P binding to membrane fraction of HEK-293 cells transferred with the human Edg-1 (S1P1) gene
- MEASUREMENT_PARAMETERS: test compound at 10 μM; inhibition of [33P]-S1P binding to the membrane fraction of HEK-293 cells expressing human Edg-1 (S1P1)

{"columns": ["SMILES_INPUT", "inhibition at 10 µM, %"],
 "data": [
  ["CCn1c(Oc2ccc(OC(F)(F)F)cc2)nnc1[C@@H](C)NS(=O)(=O)c1ccc(Cl)c(Cl)c1", 101],
  ["CCn1c(Oc2ccc3cc[nH]c3c2)nnc1[C@@H](C)NS(=O)(=O)c1cccc(OC)c1", 84],
  ["CCn1c(Oc2cccc(C)n2)nnc1[C@@H](C)NS(=O)(=O)c1ccc(Cl)c(Cl)c1", 99.3],
  ["CCn1c(Oc2ccc3cc[nH]c3c2)nnc1[C@@H](C)NS(=O)(=O)c1ccc2c(c1)CN(C(=O)C(F)(F)F)CC2", 63.2],
  ["CCn1c(Oc2cccnc2)nnc1[C@@H](C)NS(=O)(=O)c1ccc(Cl)c(Cl)c1", 92.9],
  ["CCn1c(Oc2cccc(N)c2)nnc1[C@@H](C)NS(=O)(=O)c1ccc(Cl)c(Cl)c1", 101],
  ["CCn1c(Oc2ccc3cc[nH]c3c2)nnc1[C@@H](C)NS(=O)(=O)c1cccc(Cl)c1Cl", 89.2]
]}

====

- ASSAY_SYSTEM: human Edg-1 (S1P1) (Homo sapiens, UniProt P21453)
- Construct: expressed in transfected cells; host or cells: HEK-293
- EXPERIMENT_SUMMARY: S1P1 binding assay: inhibition of [33P]-S1P binding to membrane fraction of HEK-293 cells transferred with the human Edg-1 (S1P1) gene
- MEASUREMENT_PARAMETERS: test compound 10 μM; inhibition of [33P]-S1P binding, membrane fraction
RECORDED_METRIC: inhibition at 10 µM (%)

{"columns": ["COMPOUND", "NUMERIC_READOUT"],
 "data": [
  ["CCn1c(Oc2cccc(N3CCN(C)CC3)c2)nnc1[C@@H](C)NS(=O)(=O)c1c(C)cc(C)cc1C [Compound 517]", 69.6],
  ["CCn1c(Oc2ccc3cc[nH]c3c2)nnc1[C@@H](C)NS(=O)(=O)c1cc(F)c(F)cc1F [Compound 427]", 86.5],
  ["CCn1c(Oc2cccc(N3CCN(C)CC3)c2)nnc1[C@@H](C)NS(=O)(=O)c1c(Cl)ccc2nonc12 [Compound 542]", 50.1],
  ["CCn1c(Oc2ccc3cc[nH]c3c2)nnc1[C@@H](C)NS(=O)(=O)c1cc(Br)ccc1Br [Compound 428]", 81.4]
]}

====

- ASSAY_SYSTEM: human Edg-1 (S1P1) (Homo sapiens)
- Construct: expressed in transfected cells; host or cells: HEK-293
- EXPERIMENT_SUMMARY: S1P1 binding assay: inhibition of [33P]-S1P binding to membrane fraction of HEK-293 cells transferred with the human Edg-1 (S1P1) gene
- MEASUREMENT_PARAMETERS: test compound at 10 μM; inhibition of [33P]-S1P binding to the membrane fraction of HEK-293 cells expressing human Edg-1 (S1P1)
RECORDED_METRIC: inhibition at 10 µM (%)

{"columns": ["COMPOUND", "NUMERIC_READOUT"],
 "data": [
  ["CCn1c(Oc2ccc(F)cc2)nnc1[C@@H](C)NS(=O)(=O)c1cc(C(F)(F)F)ccc1Br [Compound 271]", 57.1],
  ["CCn1c(Oc2ccc(C)cc2)nnc1[C@H](C)NS(=O)(=O)c1ccc(Cl)c(Cl)c1 [Compound 62]", 83.5],
  ["CCn1c(Oc2cccc(N(C(C)C)C(C)C)c2)nnc1[C@@H](C)NS(=O)(=O)c1ccc(Cl)c(Cl)c1 [Compound 107]", 104],
  ["CCn1c(Oc2cccc(C)c2)nnc1[C@@H](C)NS(=O)(=O)c1ccc(Cl)c(Cl)c1 [Compound 5]", 97.3],
  ["CCn1c(Oc2ccc(F)cc2)nnc1[C@@H](C)NS(=O)(=O)c1cc(F)c(F)cc1F [Compound 256]", 85.2],
  ["CCn1c(Oc2ccc(Cl)c(C)c2)nnc1[C@@H](C)NS(=O)(=O)c1ccc(Cl)c(Cl)c1 [Compound 26]", 97.9],
  ["CCn1c(Oc2ccccc2C)nnc1[C@@H](C)NS(=O)(=O)c1ccc(Cl)c(Cl)c1 [Compound 4]", 95.7],
  ["CCn1c(Oc2ccc(F)cc2)nnc1[C@@H](C)NS(=O)(=O)c1ccc(Br)cc1 [Compound 156]", 107]
]}

====

- ASSAY_SYSTEM: human Edg-1 (S1P1) (Homo sapiens, UniProt P21453)
- Construct: expressed in transfected cells; host or cells: HEK-293
- EXPERIMENT_SUMMARY: S1P1 binding assay: inhibition of [33P]-S1P binding to membrane fraction of HEK-293 cells transferred with the human Edg-1 (S1P1) gene
- MEASUREMENT_PARAMETERS: test compound 10 μM; inhibition of [33P]-S1P binding, membrane fraction
- Protocol: The membrane fraction was obtained by treating the cells with a solubilizing buffer (1 mM Tris/HCl, pH 7.2) for 10 minutes on ice, centrifuging at 1000×g for 5 minutes to remove insoluble fractions, and then centrifuging at 40000×g for 30 minutes at 4° C. […] The same procedure was carried out in the absence of the test compound, and the amount (B) of [^33P]-S1P bound was calculated. […]

{"columns": ["COMPOUND", "inhibition at 10 µM, %"],
 "data": [
  ["CCn1c(Oc2ccc3cc[nH]c3c2)nnc1[C@@H](C)NS(=O)(=O)c1ccc(Br)cc1Br [Compound 431]", 80.5],
  ["CCn1c(Oc2ccc3cc[nH]c3c2)nnc1[C@@H](C)NS(=O)(=O)c1cccc(C(C)=O)c1 [Compound 477]", 58.1],
  ["CCn1c(Oc2ccc3cc[nH]c3c2)nnc1[C@@H](C)NS(=O)(=O)c1ccc2nsnc2c1 [Compound 464]", 87.9],
  ["CCn1c(Oc2ccc3cc[nH]c3c2)nnc1[C@@H](C)NS(=O)(=O)c1ccc(-c2cnco2)s1 [Compound 467]", 59.9],
  ["CCc1cc(Br)ccc1S(=O)(=O)N[C@H](C)c1nnc(Oc2cccc(N3CCN(C)CC3)c2)n1CC [Compound 574]", 86.9],
  ["CCn1c(Oc2ccc(F)c(N3CCN(C)CC3)c2)nnc1[C@@H](C)NS(=O)(=O)c1ccc(Cl)c(Cl)c1 [Compound 681]", 100],
  ["CCn1c(Oc2cccc(N3CCN(C)CC3)c2)nnc1[C@@H](C)NS(=O)(=O)c1ccc2cccc(Cl)c2c1 [Compound 666]", 97.9]
]}

====

- ASSAY_SYSTEM: human Edg-1 (S1P1) (Homo sapiens)
- Construct: expressed in transfected cells; host or cells: HEK-293
- EXPERIMENT_SUMMARY: S1P1 binding assay: inhibition of [33P]-S1P binding to membrane fraction of HEK-293 cells transferred with the human Edg-1 (S1P1) gene
- MEASUREMENT_PARAMETERS: test compound 10 μM; inhibition of [33P]-S1P binding, membrane fraction
Classify by measured inhibition at 10 µM: label 1 if it is equal to or exceeds 90%, label 0 if it is smaller.

{"columns": ["SMILES_INPUT", "DISCRETE_LABEL"],
 "data": [
  ["CCn1c(Oc2cccc(N3CCN(C)CC3)c2)nnc1[C@@H](C)NS(=O)(=O)c1cccc(Cl)c1", "label 1"],
  ["CCn1c(Oc2ccc3cc[nH]c3c2)nnc1[C@@H](C)NS(=O)(=O)c1cc(F)c(F)c(F)c1", "label 1"],
  ["CCn1c(Oc2cccc(N3CCN(C)CC3)c2)nnc1[C@@H](C)NS(=O)(=O)c1c(F)cccc1F", "label 0"],
  ["CCn1c(Oc2cccc(N3CCN(C)CC3)c2)nnc1[C@@H](C)NS(=O)(=O)c1sc2ccc(Cl)cc2c1C", "label 0"],
  ["CCn1c(Oc2cccc(N3CCN(C)CC3)c2)nnc1[C@@H](C)NS(=O)(=O)c1ccc(Br)c(C(F)(F)F)c1", "label 1"],
  ["CCn1c(Oc2ccc(F)cc2)nnc1C1(NS(=O)(=O)c2ccc(Cl)c(Cl)c2)CC1", "label 0"],
  ["CCn1c(Oc2cccc(N3CCNCC3)c2)nnc1[C@@H](C)NS(=O)(=O)c1ccc2c(Cl)cccc2c1", "label 1"],
  ["CCn1c(Oc2cccc(N3CCN(C)CC3)c2)nnc1[C@@H](C)NS(=O)(=O)c1ccc(F)cc1F", "label 0"],
  ["CCn1c(Oc2cccc(N3CCN(C)CC3)c2)nnc1[C@@H](C)NS(=O)(=O)c1ccc(F)c(F)c1", "label 1"],
  ["CCn1c(Oc2cccc(N3CCN(C)CC3)c2)nnc1[C@@H](C)NS(=O)(=O)Cc1cccc(Cl)c1", "label 0"],
  ["CCn1c(Oc2cccc(N3CCN(C)CC3)c2)nnc1[C@@H](C)NS(=O)(=O)c1ccc(Br)cc1Cl", "label 1"],
  ["CCn1c(Oc2cccc(N3CCN(C)CC3)c2)nnc1[C@@H](C)NS(=O)(=O)c1c(F)c(F)c(F)c(F)c1F", "label 0"],
  ["CCn1c(Oc2cccc(N3CCN(C)CC3)c2)nnc1[C@@H](C)NS(=O)(=O)c1cc(Br)ccc1Br", "label 1"]
]}

Numbers sourced from patent US8022091B2.
